Biological target: T1, KDM4B-DTD S965D (human, UniProt O94953 917-1031, S965D)
T1 construct: Human KDM4B double tudor domain, residues 917-1031 of UniProt O94953 (isoform 1); also called KDM4B-S965D; source: E. coli BL21 (DE3), purified (Ni-NTA)
T1 sequence (looked up): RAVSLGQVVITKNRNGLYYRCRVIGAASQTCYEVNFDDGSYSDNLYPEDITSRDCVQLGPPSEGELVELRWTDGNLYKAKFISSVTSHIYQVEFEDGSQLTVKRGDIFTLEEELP
Test: fluorescence polarisation; fluorescein-labelled histone peptide 3 nM, KDM4 DTD titrated 0.1-100 μM; 30 mM HEPES, 150 mM NaCl pH 7.4, 0.01% Triton X-100
Conditions: both partners purified
pKd: −log10 of the molar value. No end group written: not given here. Me3 = trimethyl-lysine
READOUT_KIND: pKd

Which pKd is listed for ARTK(Me3)QTARKSTGGK (also: fluorescein label, end not given here) [H3K4me3 peptide, fluorescein-labelled] ?
~3.70
